Source: PubChem BioAssay

Experiment: CREB reporter modulators under forskolin, primary screen, cell-based, PC12, CRE-LacZ reporter, forskolin-stimulated (AID 1146);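 also: PC12 cells with 6xCRE LacZ reporter stimulated by forskolin 10 µM; beta-galactosidase reporter signal reflecting CREB driven transcription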
Conditions: luminescence, 4.5 h, higher = more signal, called active from +8 up or from −8 down
observation-type: z-score

Cc1ccc(F)cc1S(=O)(=O)N[C@@H]1CCN(Cc2ccc3[nH]ccc3c2)C1 0.49
CC(C)(C)OC(=O)CC[C@]1(C(N)=O)N=C(c2ccc(OCCCO)cc2)O[C@H]1c1ccccc1CN=[N+]=[N-] -0.671
C=C(COC)/C(=C/C[C@H](OC(=O)c1ccncc1)c1cccc(OCCO)c1)c1cnc2ccccc2c1 0.506
[N-]=[N+]=NCc1ccccc1C[C@@]1(C(=O)O)N=C(c2ccc(OCCCO)cc2)O[C@@H]1c1ccccc1CN=[N+]=[N-] -1.4
CCCCC=C[C@@H](NC(=O)c1ccc(C(F)(F)F)cc1)c1ccccc1 1.47

---

Molecular target: Dihydroorotate dehydrogenase (quinone), mitochondrial (Plasmodium falciparum (isolate 3D7)) (UniProt Q08210)
Sequence (Q08210 whole entry, looked up): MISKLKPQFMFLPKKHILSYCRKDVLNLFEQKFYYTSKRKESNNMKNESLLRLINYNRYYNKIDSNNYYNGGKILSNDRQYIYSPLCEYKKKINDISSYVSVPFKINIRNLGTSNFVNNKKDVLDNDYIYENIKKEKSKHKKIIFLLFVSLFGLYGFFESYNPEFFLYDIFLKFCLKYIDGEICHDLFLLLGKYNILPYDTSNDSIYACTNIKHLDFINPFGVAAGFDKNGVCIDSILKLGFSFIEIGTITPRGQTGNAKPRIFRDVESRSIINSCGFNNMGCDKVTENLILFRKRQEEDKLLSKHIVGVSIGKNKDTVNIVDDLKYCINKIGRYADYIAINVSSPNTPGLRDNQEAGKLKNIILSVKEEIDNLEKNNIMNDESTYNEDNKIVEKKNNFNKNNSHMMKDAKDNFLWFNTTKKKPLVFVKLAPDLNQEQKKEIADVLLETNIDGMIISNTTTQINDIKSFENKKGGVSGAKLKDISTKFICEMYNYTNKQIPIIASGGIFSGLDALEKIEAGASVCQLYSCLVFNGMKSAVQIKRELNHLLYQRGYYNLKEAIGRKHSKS
Assay: PfDHODH enzyme inhibitors, primary screen, biochemical, C-terminal His tag, absorbance 600 nm (AID 1175);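 also: recombinant parasite enzyme with a five histidine tag at its C terminus; test concentration not given here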
Conditions: DCIP absorbance 600 nm, higher = more signal, called active from +8 up or from −8 down
The following molecules are shown together with reported composite z-score values.
observation-type: composite z-score

molecule	observation-type	assay-value
C=CCOC(=O)[C@H]1[C@@H]2C(=O)O[C@@H](c3ccccc3)[C@@H](c3ccccc3)N2[C@@H](c2ccc(OCCOC(=O)[C@@H]3C[C@@H]4C(=O)N[C@@H](CC(C)C)C(=O)N4[C@@H]3c3ccc(O)cc3)cc2)[C@]12C(=O)Nc1ccc(I)cc12	composite z-score	-1.41
CC(C)C[C@H]1NC(=O)[C@@]23C(=O)N[C@@H](Cc4ccccc4)C2[C@H](C)[C@@]2(C)O[C@H]2C3/C=C/C/C=C\CNC(=O)[C@@H]2CCCN2C1=O (some centres not stated)	composite z-score	-0.742
COCCOC(=O)N1C(=O)[C@@]2(c3cc(C#CC4=CCCCC4)ccc31)[C@H](c1ccccc1OCCO)N1[C@H](c3ccccc3)[C@H](c3ccccc3)OC(=O)[C@H]1[C@@H]2C(N)=O	composite z-score	-0.176
CCCCC(O)C1C=CC2C(=O)NC(=O)C2N1Nc1ccccn1 (configuration not stated)	composite z-score	0.487
CN(C)CCCCNC(=O)[C@H]1C[C@H]2C(=O)NCC(=O)N2[C@H]1c1cccc(OCCO)c1	composite z-score	-0.0392
[N-]=[N+]=Nc1ccccc1[C@@H]1OC(c2ccc(OCCCO)cc2)=N[C@]1(Cc1ccccc1)C(N)=O	composite z-score	0.474
C=CCC(OC(C)=O)[C@@H]1[C@@H](N(Cc2cc3ccccc3o2)C(=O)c2ccc(-c3ccccc3)cc2)c2cc(OCCCO)ccc2N1C(=O)c1ccc2ccccc2n1 (some centres not stated)	composite z-score	0.706

---

The following compounds are shown together with reported composite z-score values.
System: glycogen synthase kinase-3 (GSK3A per assay name; protocol says GSK3B)
Assay: GSK3 binders on small-molecule microarrays, primary screen, biochemical, small-molecule microarray, 635 nm fluorescence, GSK3A (AID 1103); also: the record names both GSK3A and GSK3B
Details: small-molecule microarray binding, fluorescence 635 nm; higher = more signal
observation-type: composite z-score

compound	assay-value
COC(=O)Cn1c(C(=O)N(C)C)cc2c1C[C@H]1CN(C(=O)c3ccccc3)[C@@](Cc3ccc(OC)cc3)(C(=O)OC)[C@@H]21	-0.196
CCCCN1CC=CC23O[C@@H]4C=CCOC(=O)[C@@H]4[C@H]2C(=O)N(C(CO)C(C)C)[C@@H]3C1=O (stereo not given in full)	-0.13
CCOC(=O)C1=C(C(=O)OCC)N(S(=O)(=O)CC[Si](C)(C)C)[C@H](c2ccccc2)CC1	1
CCCCN1CC=CC23O[C@@H]4/C=C\CCC(C)OC(=O)C4[C@H]2C(=O)N(C(C)CO)[C@@H]3C1=O (stereo not given in full)	-0.937
CO[C@H]1O[C@H](CO)[C@@H](OC(=O)Nc2ccccc2)[C@@H]2OC(=O)[C@H](Cc3ccccc3)C/C=C/C[C@@H](Cc3ccccc3)C(=O)O[C@@H]12	0.56
COc1ccc(CCNC(=O)[C@@]2(C)c3ccccc3C(=O)N(Cc3cc(C(F)(F)F)cc(C(F)(F)F)c3)[C@H]2c2ccc(CO)cc2)cc1	0.651
COC(=O)[C@@]1(CCC(=O)OC(C)(C)C)N=C(c2ccc(OCCCO)cc2)O[C@H]1c1ccccc1CN=[N+]=[N-]	-0.546
COCCOC(=O)N1C(=O)[C@@]2(c3cc(C#CC4=CCCCC4)ccc31)[C@H](C(=O)N1CCN(c3ncccn3)CC1)[C@H]1C(=O)O[C@H](c3ccccc3)[C@H](c3ccccc3)N1[C@@H]2c1ccccc1OCCO	1.28
CN(C)CCCNC(=O)[C@@]1(Cc2ccccc2I)c2ccccc2C(=O)N(Cc2ccccc2)[C@H]1c1ccc(CO)cc1	1.33
O=C1C2C=CC(C(O)c3ccc([N+](=O)[O-])cc3)N(Nc3ccccc3)C2C(=O)N1c1ccccc1 (stereo not given)	0.273

---

Molecular target: Torsin-1A (Homo sapiens)
Experiment: small-molecule binders of mutant TOR1A in lysate, primary screen, cell lysate, small-molecule microarray, COS7 lysate, 635/667 nm fluorescence (AID 1150);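 also: score pools 667 nm emission and signal to noise measuring lysate protein binding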
Conditions: COS7 hTOR1A mutant lysate, 635 nm fluorescence, higher = more signal
The following compounds are shown together with reported composite z-score values.

compound	composite z-score
CC(C)(C)OC(=O)CC[C@]1(C(=O)N2CCOCC2)N=C(c2ccc(OCCCO)cc2)O[C@H]1c1ccccc1CN=[N+]=[N-]	1.58
C=CCNC(=O)[C@@H]1[C@H]2C(=O)O[C@H](c3ccccc3)[C@H](c3ccccc3)N2[C@H](c2ccc(O)cc2)[C@@]12C(=O)Nc1ccc(C#CC3(O)CCCCCC3)cc12	0.781
CCCCC(=C=CC[C@H](O)c1ccc(OCCO)cc1)C[C@H](O)c1ccccn1	1.58
CCCCC(O)C1C=CC2C(=O)NC(=O)C2N1Nc1ccccn1 (stereo not drawn)	0.203
C=C(CC1([C@@H](NP(=O)(c2ccccc2)c2ccccc2)[C@H]2C[C@@H]2CCN(C(=O)OCC)S(=O)(=O)c2ccc(C)cc2)CC1)c1ccccc1	0.0999
C=CC[C@]1(C(=O)NCc2ccccc2)COC(c2ccc(OCCCO)cc2)=N1	1.52
COCC1=C([C@H](O)CCc2ccccc2)[C@H](CO)n2c(=O)n(-c3ccccc3)c(=O)n2C1	-0.414
CC(C)N1CC=CC23O[C@@H]4C=CCCOC(=O)C4[C@H]2C(=O)N(CCCCCO)[C@@H]3C1=O (stereo partly drawn)	-1.12
COc1ccc([Si](C)(C)[C@H]2[C@H](CCO)O[C@@]3(C(=O)N(Cc4ccc(N5CCOC5=O)cc4)c4ccccc43)[C@@H]2C)cc1	0.0362
CC(C)c1ccc(NN2C(C(O)C(C)C)C=CC3C(=O)N(c4ccccc4)C(=O)C32)cc1 (stereo not drawn)	0.431
COC(=O)[C@@H]1N=C(c2ccc(OCCCO)cc2)O[C@@H]1c1ccccc1CN=[N+]=[N-]	-0.938
C=CC[C@]1(C(=O)OC)N=C(c2ccc(OCCCO)cc2)O[C@H]1c1ccccc1N=[N+]=[N-]	1
CCOC(=O)C1=CC[C@@H](c2ccccc2Cl)N(S(=O)(=O)c2ccc(C)cc2)[C@H]1c1cccc(OC)c1	0.0635

---

Test system: Human papillomavirus type 1a protein E7 (residues 44-93)
Test: HPV1a E7 fragment binders on microarrays, primary screen, biochemical, small-molecule microarray, residues 44-93, 635 nm fluorescence (AID 1108);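 also: E7 fragment applied at 1 µg/mL in TBST for 1 h at 4 C; score combines spot fluorescence with its signal to noise ratio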
Details: small-molecule microarray binding, fluorescence 635 nm; higher = more signal
Values of composite z-score greater than or equal to 0.3 map to Satisfied; values below map to Not satisfied.

molecule	discrete-label
C[N+](C)(C)CCCCCCNC(=O)[C@@H]1C[C@@H]2C(=O)N[C@@H](Cc3ccccc3)C(=O)N2[C@@H]1c1ccc(O)cc1	Satisfied
[N-]=[N+]=NCc1ccccc1C[C@]1(C(=O)N2CCCCC2)N=C(c2ccc(OCCCO)cc2)O[C@H]1c1ccccc1	Satisfied
COc1cc2c(cc1O)C(C1CC1)N(Cc1ccc([N+](=O)[O-])o1)CC2 (configuration not stated)	Satisfied
CCOC(=O)C1=CC[C@@H](c2ccc(F)cc2)N(S(=O)(=O)c2ccc(C)cc2)[C@H]1c1ccc([N+](=O)[O-])cc1	Satisfied
C=C(CCCC)C(=O)CC[C@H](OC(C)=O)c1ccccc1OCCO	Not satisfied
Cc1ccc(F)cc1S(=O)(=O)N[C@@H]1CCN(Cc2ccc3[nH]ccc3c2)C1	Satisfied
C=C(CCCC)/C(=C/C[C@H](OC(C)=O)c1cccc(OCCO)c1)c1cc(C(=O)OC)ccc1OC	Not satisfied
CC(C)C[C@@H]1NC(=O)[C@H]2C[C@@H](C(=O)NCCCCCNC(=O)CS)[C@@H](c3ccc(O)cc3)N2C1=O	Satisfied
CC(C)C(=C=CC[C@@H](O)c1cccc(OCCO)c1)CCO	Not satisfied
COCCOC(=O)N1C(=O)[C@@]2(c3cc(C#CCC(C(=O)OC)C(=O)OC)ccc31)[C@H](c1ccc(OCCO)cc1)N1[C@H](c3ccccc3)[C@H](c3ccccc3)OC(=O)[C@H]1[C@@H]2C(=O)N1CCCCCCC1	Satisfied
O=C1O[C@H](c2ccccc2)[C@H](c2ccccc2)N2[C@H]1[C@@H](C(=O)NC[C@H](O)c1ccccc1)[C@]1(C(=O)Nc3ccc(C#CCCO)cc31)[C@H]2c1ccccc1OCCO	Satisfied
COC(=O)[C@@]1(Cc2ccccc2CN=[N+]=[N-])COC(c2ccc(OCCCO)cc2)=N1	Not satisfied
COc1ccc([Si](C)(C)[C@@H]2[C@@H](CC(=O)N(CCO)Cc3ccccc3)O[C@]3(C(=O)N(Cc4ccc(N5CCC5=O)cc4)c4ccccc43)[C@H]2C)cc1	Not satisfied
CO[C@H]1O[C@H](CO)[C@@H](OC(=O)Nc2ccc3c(c2)OCO3)[C@@H]2OC(=O)[C@@H](Cc3ccccc3)C/C=C/C[C@H](Cc3ccccc3)C(=O)O[C@@H]12	Satisfied
C[C@@H](OCc1ccccc1)C1NC(=O)[C@@]23C(=O)N[C@@H](Cc4ccccc4)C2[C@H](C)[C@@]2(C)O[C@H]2C3/C=C/C/C=C\CNC(=O)[C@H](Cc2ccccc2)NC1=O (some centres not stated)	Not satisfied
CC(C)C[C@@H]1NC(=O)[C@@H]2C[C@H](C(=O)O)[C@H](c3ccc(O)cc3)N2C1=O	Satisfied
[N-]=[N+]=NCc1ccccc1C[C@]1(C(=O)O)COC(c2ccc(OCCCO)cc2)=N1	Not satisfied
